The reported numbers originate from paper PMC5766609.

# Subject Of Test: human GLP-1 receptor (human) (UniProt P43220)
# Sequence (P43220 24-463): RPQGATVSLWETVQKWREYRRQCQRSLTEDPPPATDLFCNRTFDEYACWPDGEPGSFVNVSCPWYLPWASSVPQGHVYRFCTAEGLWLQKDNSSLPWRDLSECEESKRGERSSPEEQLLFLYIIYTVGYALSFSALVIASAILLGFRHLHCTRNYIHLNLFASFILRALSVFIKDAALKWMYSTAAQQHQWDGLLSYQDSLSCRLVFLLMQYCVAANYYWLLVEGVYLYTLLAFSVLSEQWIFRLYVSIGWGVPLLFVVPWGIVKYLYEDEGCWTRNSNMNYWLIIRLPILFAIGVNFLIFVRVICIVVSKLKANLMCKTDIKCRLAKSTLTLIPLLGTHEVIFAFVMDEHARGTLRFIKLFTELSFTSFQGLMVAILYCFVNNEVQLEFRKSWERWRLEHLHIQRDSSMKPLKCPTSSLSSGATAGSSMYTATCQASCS
No end group written: not given here.
Observed Property: EC50 GLP1R (nM); cAMP assay on CHO-JumpIn cells with human GLP1R

I would be grateful if you could share the reported EC50 GLP1R (nM); cAMP assay on CHO-JumpIn cells with human GLP1R for HSVGNFWSDYSKYLDSRRAQDFVQWLMLT-NH2 [Peptide 1] .
16.7 nM

Same lookup for HSQGTFTSDYSKYLDSIRAQDFVQWLMDT-NH2 [Peptide 18] , please.
0.056 nM

I'm hoping you can list EC50 GLP1R (nM); cAMP assay on CHO-JumpIn cells with human GLP1R for every binder here, please.
1. HSQGTFTSDYSKYLDELRAYDFVQWLMNT-NH2 [Peptide 10]
2. HSQGTFTSDYSKYLDIGRAQDFVQWLLNT-NH2 [Peptide 4]
3. HSQGTFTSDYSKYLDSRMAYDFVQWLMNT-NH2 [Peptide 33]
4. HSQGTFLHDYYYYLDSRRAQDFVQWLMDT-NH2 [Peptide 17]

0.038 nM
1.33 nM
0.059 nM
> 200 nM
